EXPERIMENTAL DETAILS: qHTS of pediatric cancer cell lines to identify multiple opportunities for drug repurposing: Primary screen for Rh18 cells (AID 1347102); further: on the % scale 0 is the no-effect control and ±100 the full control effect; nearly all actives have a fitted effect of over 65% in size
ASSAY CONDITIONS: Rh18 rhabdomyosarcoma viability, CellTiter-Glo luminescence, 48 h; series mostly up to 46 µM
Results filed as inconclusive are left out. The source made the active and inactive calls. The call rests on the fitted dose curve; in most records, active means well fitted cell-killing curve with a large enough effect; inconclusive means small, poorly fitted or top-dose-only effect; inactive means flat fitted curve, though single readings scatter.
READOUT TYPE: outcome

- COMPOUND: "C[C@](O)(COc1ccc(C#N)cc1)C(=O)Nc1ccc(C#N)c(C(F)(F)F)c1"
  REPORTED MEASUREMENT: "inactive"
- COMPOUND: "CCC(=O)OC1CCC2C3CCC4=CC(=O)CC[C@@]4(C)C3CC[C@]12C (stereo partly drawn)"
  REPORTED MEASUREMENT: "inactive"
- COMPOUND: "CC(O)CN1CCN(CC(=O)[O-])CCN(CC(=O)[O-])CCN(CC(=O)[O-])CC1.[Gd+3] (stereo not drawn)"
  REPORTED MEASUREMENT: "inactive"

---

Test system: Es-2
EXPERIMENTAL DETAILS: Primary qHTS to identify gynecologic anti-cancer compounds using libraries of approved drugs and bioactive compounds (AID 1345084); further: nearly all actives have a fitted effect of over 55% in size; further: potency means the concentration at half of the fitted maximal effect
ASSAY CONDITIONS: Gynecologic cancer cell panel viability, ATPlite luminescence, 48 h; series mostly up to 57.5 µM
Records with an inconclusive call do not appear. Calls of active or inactive are those of the source. The call rests on the fitted dose curve; in most records, active means well fitted cell-killing curve with a large enough effect; inconclusive means small, poorly fitted or top-dose-only effect, or effect the other way; inactive means flat fitted curve, though single readings scatter.
READOUT TYPE: Potency

In the examples that follow, each entry is paired with its recorded Potency.
- COMPOUND: "Cc1[nH]nc2ccc(-c3cncc(OC[C@@H](N)Cc4c[nH]c5ccccc45)c3)cc12"
  Potency: "1.78 µM (active)"
- COMPOUND: "Fc1cc(Br)ccc1CBr"
  Potency: "inactive"
- COMPOUND: "O=S(=O)(O)C(F)(F)C(F)(F)C(F)(F)C(F)(F)F"
  Potency: "inactive"
- COMPOUND: "C=CCC1=C(C)C(OC(=O)C2C(C=C(C)C)C2(C)C)CC1=O (stereo unspecified)"
  Potency: "inactive"
- COMPOUND: "Oc1ccc2c3c1O[C@H]1[C@@H](O)C=C[C@H]4[C@@H](C2)NCC[C@@]341"
  Potency: "inactive"

Please look at the following compound next.
**Query** Using the record for COc1ccc(C(c2ccc(OC)cc2)C(Cl)(Cl)Cl)cc1 , report its Potency.
**Result** inactive

---

Test system: MCC-13
EXPERIMENTAL DETAILS: qHTS assay to identify novel small-molecules to repurpose for Merkel cell carcinoma treatment (AID 1296009); further: nearly all actives have a fitted effect of over 60% in size
ASSAY CONDITIONS: MCC and control cell lines, CellTiter-Glo viability, 72 h; series mostly up to 46 µM
Excerpt: MCC is a rare and aggressive neuroendocrine skin cancer with limited treatment options. Approximately 80% of MCCs have the Merkel cell polyomavirus (MCPyV) DNA integrated into the host genome (virus-positive: VP-MCC) and viral oncogenes drive oncogenesis. The remaining MCCs are virus-negative (VN-MCC) and are caused by UV mutagenesis. […] Using cell viability as a readout (CellTiter-Glo assay) we found both overlapping and distinct drugs that can be repurposed for the treatment of VP-MCC and VN-MCC. […]
Inconclusive results are not listed. Calls of active or inactive are those of the source. The call rests on the fitted dose curve; in most records, active means well fitted inhibition curve with a large enough effect; inconclusive means small, poorly fitted or top-dose-only effect; inactive means flat fitted curve, though single readings scatter.
Answer with one of the outcomes given here: Y (active), N (inactive)

// known answers, use as guide
- COMPOUND: "COC1=C[C@@H]2[C@@H]3Cc4ccc(OC)c(O)c4[C@]2(CCN3C)CC1=O"
  STUDY TARGET: "MCC-13"
  GROUP LABEL: "N"
- COMPOUND: "CC(C)(C)C(O)C(Oc1ccc(Cl)cc1)n1cncn1 (centres undefined)"
  STUDY TARGET: "MCC-13"
  GROUP LABEL: "N"
- COMPOUND: "CC(C)(C)c1cc(C=C(C#N)C#N)cc(Br)c1O"
  STUDY TARGET: "MCC-13"
  GROUP LABEL: "N"
- COMPOUND: "CC(N[C@H]1C[C@H]1c1ccccc1)c1ccc2c(c1)OCCO2 (some centres undefined)"
  STUDY TARGET: "MCC-13"
  GROUP LABEL: "N"
- COMPOUND: "COC1=CC(C)=C[C@@H](C)[C@@H](O)[C@@H](C)CC(C)=CC=C[C@H](OC)[C@H]([C@@H](C)[C@@H](O)[C@H](C)[C@@]2(O)C[C@@H](O)[C@H](C)[C@@H](C(C)C)O2)OC1=O"
  STUDY TARGET: "MCC-13"
  GROUP LABEL: "Y"
- COMPOUND: "CC(C)N(CCNC(=O)CN1CCCC1=O)C(C)C"
  STUDY TARGET: "MCC-13"
  GROUP LABEL: "N"
- COMPOUND: "CC(O)CN1CCN(CC(=O)[O-])CCN(CC(=O)[O-])CCN(CC(=O)[O-])CC1.[Gd+3] (centres undefined)"
  STUDY TARGET: "MCC-13"
  GROUP LABEL: "N"
- COMPOUND: "CC(=O)N(C)c1cccc(-c2ccnc3c(C(=O)c4cccs4)cnn23)c1"
  STUDY TARGET: "MCC-13"
  GROUP LABEL: "N"

Kindly review the next compound as well.
**Query** Outcome? CN1CCN(c2ccc([N+](=O)[O-])c3no[n+]([O-])c23)CC1
**Result** N

---

EXPERIMENTAL DETAILS: Quantitative High-Throughput drug screen in 47 multiple myeloma cell lines against the NCATS MIPE library collection: KMS28PE_JCRB cell viability assay (AID 1918983); further: potency means the concentration at half of the fitted maximal effect; nearly all actives have a fitted effect of over 35% in size
ASSAY CONDITIONS: KMS28PE multiple myeloma viability, CellTiter-Glo ATP, 48 h; series mostly up to 45.8 µM
Records with an inconclusive call do not appear. Activity calls are given as the source filed them. The call rests on the fitted dose curve; in most records, active means well fitted cell-killing curve with a large enough effect; inconclusive means small, poorly fitted or top-dose-only effect, or effect the other way; inactive means no such curve, though single readings can be large or run the other way.
Answer with one of the outcomes given here: True = active, False = inactive

**Query** Outcome? Cc1c(C(=O)Nc2cccc(C(F)(F)F)c2)cc(-c2ccccc2)n1CCCN1CCOCC1
**Result** True

---

EXPERIMENTAL DETAILS: Quantitative High-Throughput drug screen in 47 multiple myeloma cell lines against the NCATS MIPE library collection: Delta47_JCRB cell viability assay (AID 1918925; further: nearly all actives have a fitted effect of over 45% in size)
ASSAY CONDITIONS: Delta47 myeloma viability, CellTiter-Glo ATP, 48 h; series mostly up to 45.8 µM
Records with an inconclusive call do not appear. Active and inactive are the calls of the source. Calls follow the shape of the dose curve; as a rule, active = well fitted cell-killing curve with a large enough effect; inconclusive = small, poorly fitted or top-dose-only effect, or effect the other way; inactive = no such curve, though single readings can be large or run the other way.
Answer with one of the outcomes given here: yes (1) for active, no (0) for inactive

- SMILES NOTATION: "C=CCON=C(C[C@H]1O[C@@H]2O[C@]3(C)CC[C@@H]4[C@H](C)CC[C@@H]([C@H]1C)[C@@]24OO3)[C@H]1O[C@@H]2O[C@]3(C)CC[C@H]4[C@H](C)CC[C@@H]([C@@H]1C)[C@@]24OO3"
  GROUP LABEL: "yes (1)"
- SMILES NOTATION: "CC(O)=C(C#N)C(=O)Nc1cc(Br)ccc1Br"
  GROUP LABEL: "no (0)"
- SMILES NOTATION: "Cc1c(C(=O)c2cccc3ccccc23)c2cccc3c2n1[C@H](CN1CCOCC1)CO3"
  GROUP LABEL: "yes (1)"

Kindly review the next compound as well.
**Query** Outcome? COC(=O)[C@@H](N)CCCN=C(N)N[N+](=O)[O-]
**Result** no (0)

---

Test system: PC15
EXPERIMENTAL DETAILS: qHTS profiling for inhibitors of Plasmodium falciparum proliferation (AID 504749); further: nearly all actives have a fitted effect of over 60% in size
ASSAY CONDITIONS: P. falciparum in erythrocytes, SYBR Green DNA, 72 h; series mostly up to 28.7 µM
Inconclusive results are not listed. Calls of active or inactive are those of the source. Calls come from the whole dose curve; as a rule, active = well fitted inhibition curve with a large enough effect; inconclusive = small, poorly fitted or top-dose-only effect; inactive = flat fitted curve, though single readings scatter.
Answer with one of the outcomes given here: label 1 = active, label 0 = inactive

// known answers, use as guide
- COMPOUND: "CC(C)NC(C)Cc1ccc(I)cc1 (stereo not given)"
  GROUP LABEL: "label 0"
- COMPOUND: "CCCCCCCCCC(CC)c1ccc(S(=O)(=O)O)cc1 (stereo not given)"
  GROUP LABEL: "label 0"
- COMPOUND: "c1ccc(C2(c3ccccc3)CC2C2=NCCN2)cc1 (stereo not given)"
  GROUP LABEL: "label 1"
- COMPOUND: "COC(=O)[C@@H](N)CCCN=C(N)N[N+](=O)[O-]"
  GROUP LABEL: "label 0"
- COMPOUND: "CCCN1CCC[C@H](c2cccc(O)c2)C1"
  GROUP LABEL: "label 0"
- COMPOUND: "CN(C)[C@@H]1C(=O)C(C(N)=O)=C(O)[C@@]2(O)C(=O)C3=C(O)c4c(O)cccc4[C@@](C)(O)[C@H]3[C@H](O)[C@@H]12"
  GROUP LABEL: "label 0"
- COMPOUND: "NC1=NC(=O)N2CC12 (stereo not given)"
  GROUP LABEL: "label 0"
- COMPOUND: "CC(=O)OCC1=C(C(=O)O)N2C(=O)[C@@H](N)[C@@H]2SC1"
  GROUP LABEL: "label 0"

**Query** Outcome? CCCCc1ccc(C(=O)O)nc1
**Result** label 0

**Query** Outcome? C#CC1(O)CCC2C3CCC4=CC(=O)CCC4(C)C3CCC21C (stereo not given)
**Result** label 0
